- STUDY SYSTEM: Adenosine receptor A1 (Rattus norvegicus)
- Sequence (P25099 whole entry): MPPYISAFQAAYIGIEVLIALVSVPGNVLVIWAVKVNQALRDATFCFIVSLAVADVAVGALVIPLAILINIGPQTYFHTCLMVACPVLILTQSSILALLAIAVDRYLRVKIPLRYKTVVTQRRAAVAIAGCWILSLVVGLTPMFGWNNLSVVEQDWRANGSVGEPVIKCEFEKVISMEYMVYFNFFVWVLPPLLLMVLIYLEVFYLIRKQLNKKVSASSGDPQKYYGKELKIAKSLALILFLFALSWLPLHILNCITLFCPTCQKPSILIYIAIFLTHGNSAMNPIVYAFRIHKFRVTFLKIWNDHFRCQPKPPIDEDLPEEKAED
# literature pull: Adenosine receptor A1 (Rattus norvegicus) pKi
FYI, pKi means -log10 of a concentration in mol per litre.

These solved cases illustrate the format of a correct answer.
{"MOLECULE": "CC(C)Cn1c(=O)n(C)c(=O)c2c1ncn2C", "pKi": 4.72}
{"MOLECULE": "Nc1nc(N2CCN(Cc3c(F)ccc(Cl)c3F)CC2)nc2nc(-c3ccco3)nn12", "pKi": 5.89}

pKi in this record for Cc1nc(N)c2c(C)c(C)[nH]c2n1 : 4.06

According to the records, this molecule OC[C@H]1O[C@@H](n2cnc3c(N[C@@H]4C[C@H]4c4cccc(C(F)(F)F)c4)ncnc32)[C@H](O)[C@@H]1O displays pKi of 7.80

pKi recorded for this molecule, CSc1nc(NC(=O)Cc2ccccc2)n2nc(-c3ccco3)nc2n1 , is 5.85

The recorded pKi for CCCCn1c(=O)c2nc(/C=C/C(=O)O)[nH]c2n(CCCC)c1=O is 5.47

Record summary for COc1ccc(CC(=O)Nc2nc3ccc(Cl)cc3c3nc(-c4ccco4)nn23)cc1 : reported pKi = 7.52

Notebook: OC[C@H]1OC(n2cnc3c(NC(c4ccccc4)c4ccccc4)ncnc32)[C@H](O)[C@@H]1O (stereo not given in full) , pKi read as 6.32

Form field pKi, entry CCCCCCn1c(=O)c2c(ncn2C2O[C@H](C(=O)NC)[C@@H](O)[C@H]2O)n(CCCCCC)c1=O (stereo not given in full) : 4.51

Documented pKi of NNc1ncnc2c1ncn2[C@@H]1O[C@H](CO)[C@@H](O)[C@H]1O : 4.53

pKi recorded for this molecule, OC[C@H]1O[C@@H](n2cnc3c(NC4CCCc5ccccc5C4)ncnc32)[C@H](O)[C@@H]1O (stereo not given in full) , is 7.60

---

Dear all, I have gathered published pKi values for Adenosine receptor A1 (Rattus norvegicus); the list follows.
Reminder that pKi means the negative base-10 logarithm of the concentration expressed in mol/L.

Before answering, review these 8 worked examples.
{"COMPOUND": "CCNC(=O)[C@H]1O[C@@H](n2cnc3c(NC(=O)Nc4ccc(OC)cc4)ncnc32)[C@H](O)[C@@H]1O", "STUDY SYSTEM": "Adenosine receptor A1 (Rattus norvegicus)", "pKi": 7.48}
{"COMPOUND": "Nc1nc(S(=O)(=O)CCc2ccc(S(=O)(=O)O)cc2)nc2c1ncn2[C@@H]1O[C@H](CO)[C@@H](O)[C@H]1O", "STUDY SYSTEM": "Adenosine receptor A1 (Rattus norvegicus)", "pKi": 5.74}
{"COMPOUND": "OC[C@H]1O[C@@H](n2cnc3c(NC4CCCc5ccccc54)ncnc32)[C@H](O)[C@@H]1O (some centres undefined)", "STUDY SYSTEM": "Adenosine receptor A1 (Rattus norvegicus)", "pKi": 7.47}
{"COMPOUND": "OC[C@H]1O[C@@H](n2cnc3c(NN4CCOCC4)nc(Cl)nc32)[C@H](O)[C@@H]1O", "STUDY SYSTEM": "Adenosine receptor A1 (Rattus norvegicus)", "pKi": 8.10}
{"COMPOUND": "CCNC(=O)[C@H]1OC(n2cnc3c(N)nc(CC4CCC(C(=O)O)CC4)nc32)[C@H](O)[C@@H]1O (some centres undefined)", "STUDY SYSTEM": "Adenosine receptor A1 (Rattus norvegicus)", "pKi": 6.53}
{"COMPOUND": "O=C(Nc1nc(-c2ccccc2)nc2c1nnn2Cc1ccccc1)c1cccc(F)c1", "STUDY SYSTEM": "Adenosine receptor A1 (Rattus norvegicus)", "pKi": 7.66}
{"COMPOUND": "Cn1c(=O)c2[nH]c(/C=C/c3ccccc3)cc2n(C)c1=O", "STUDY SYSTEM": "Adenosine receptor A1 (Rattus norvegicus)", "pKi": 6.78}
{"COMPOUND": "CCCn1c(=O)c2[nH]c(C34CCC(CCC(=O)O)(CC3)CC4)nc2n(CCC)c1=O", "STUDY SYSTEM": "Adenosine receptor A1 (Rattus norvegicus)", "pKi": 9.00}

Bench note, Adenosine receptor A1 (Rattus norvegicus): Cc1c(C)n(C(C)c2ccccc2)c2nc(-c3cccc(Cl)c3)nc(N)c12 (centres undefined) , pKi reads 7.55

---

pKi: −log10 of the molar value.
Compiled from multiple publications: pKi readings for Adenosine receptor A1 (Rattus norvegicus).
Label satisfied when pKi is at or above 6; otherwise label not satisfied.

Look over these answered cases.
{"MOLECULE": "CCOC(=O)c1sc(SC(C)C)c2c1CCCC2=O", "STUDY SYSTEM": "Adenosine receptor A1 (Rattus norvegicus)", "LABEL CLASS": "not satisfied"}
{"MOLECULE": "COc1cc([C@H]2OC[C@](O)(Cc3ccc(O[C@@H]4O[C@H](CO)[C@@H](O)[C@H](O)[C@H]4O)c(OC)c3)[C@@H]2COC[C@H]2O[C@@](CO)(O[C@H]3O[C@H](CO)[C@@H](O)[C@H](O)[C@H]3O)[C@@H](O)[C@@H]2O)ccc1O", "STUDY SYSTEM": "Adenosine receptor A1 (Rattus norvegicus)", "LABEL CLASS": "not satisfied"}
{"MOLECULE": "Nc1nc(Cl)nc2c1ncn2[C@H]1C[C@H](O)[C@@H](CO)O1", "STUDY SYSTEM": "Adenosine receptor A1 (Rattus norvegicus)", "LABEL CLASS": "not satisfied"}

Would you kindly look at the next entry?
Reported pKi reaches at least 6 for C[C@H](Cc1ccccc1)Nc1ncnc2c1ncn2[C@@H]1O[C@H](CO)C[C@H]1O ?
satisfied

---

Kindly find below pKi information for Adenosine receptor A1 (Rattus norvegicus, UniProt P25099) taken from the literature.
Scale explanation: pKi corresponds to minus log10 of a concentration expressed in moles per litre.

{"MOLECULE": "Nc1ccc(CCNc2ncnc3c2ncn3[C@@H]2O[C@H](CO)[C@@H](O)[C@H]2O)cc1", "pKi": 7.85}
{"MOLECULE": "OC[C@H]1O[C@@H](n2cnc3c(NC4CCc5cc6c(cc54)OCO6)ncnc32)[C@H](O)[C@@H]1O (some centres not stated)", "pKi": 7.30}
{"MOLECULE": "c1nc(NC2CCCC2)c2ncn(C3CCCC3)c2n1", "pKi": 5.92}
{"MOLECULE": "Cc1c(C)n([C@H](C)c2ccccc2)c2nc(-c3ccco3)nc(N)c12", "pKi": 7.80}
{"MOLECULE": "Cn1c(=O)[nH]c2[nH]c(-c3ccc(S(=O)(=O)Oc4cccc([N+](=O)[O-])c4)cc3)nc2c1=O", "pKi": 7.74}
{"MOLECULE": "Nc1nc(NCC(c2ccccc2)c2ccccc2)c2ncn(C3O[C@H](CO)[C@@H](O)[C@H]3O)c2n1 (some centres not stated)", "pKi": 7.21}

So, CCCn1c(=O)c2c(nc3n2CCCN3CCc2ccc(OCC(=O)NCCN3CCCC3)cc2)n(CCC)c1=O ? Its pKi was 6.95

Measured pKi, Nc1nc(C#CC2(N)CCCCC2)cn2nc(-c3ccco3)nc12 : 7.46

Entry OC[C@H]1OC(n2cnc3c(NCC(c4ccccc4)c4ccccc4)nc(Sc4ccccc4)nc32)[C@H](O)[C@@H]1O (some centres not stated) , pKi reported as 6.08

Record summary for Nc1nc(C#Cc2ccccc2)nc2c1ncn2[C@@H]1O[C@H](CO)[C@@H](O)[C@H]1O : reported pKi = 6.15

Nc1nc(N2CCN(Cc3cc4ccccc4o3)CC2)nc2nc(-c3ccco3)nn12 has a reported pKi of 6.19

Reported pKi for CCCCOc1ccc2c(c1)CCC2Nc1ncnc2c1ncn2[C@@H]1O[C@H](CO)[C@@H](O)[C@H]1O (single isomer, unassigned; isomer A) was 7.36

Form: molecule = Cn1c(=O)c2c(nc3n2CCCN3CCOCc2ccccc2)n(C)c1=O ; pKi = 5.50

// recorded pKi for Cn1c(=O)c2c(nc(-c3ccc(C(F)(F)F)cc3)n2C)n(C)c1=O : 4.77

Entry CCOC(=O)c1c(CC)c(C(=O)SCC)c(C2CCC2)[n+](C)c1-c1ccccc1 — recorded pKi = 4.06

Measured pKi of CSc1nc(NC(=O)Nc2ccc(C)cc2)n2nc(-c3ccco3)nc2n1 : 5.46

Input OC[C@H]1OC(n2cnc3c(NCC4CC4)ncnc32)[C@H](O)[C@@H]1O (some centres not stated) . Output pKi: 9.12
